The reported numbers originate from the supplement of paper PMC10065799.

# experimentalSystem: SHP2-C SH2;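 also: peptide library displayed on the E. coli surface as eCPX fusions, selected cells deep-sequenced, score is each peptide's frequency after selection divided by its frequency in the input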
# assayInfo: SH2 binding enrichment of the phosphorylated peptide, bacterial display (enrichment ratio); higher = better substrate or ligand; peptides without Tyr show the background
measuredQuantity: SH2 binding enrichment

Worked set:
{"sequenceData": "KSIDEYLKLVG [RASAL2_Y381_E379D]", "SH2 binding enrichment": 0.797}
{"sequenceData": "IEEGTYGVVFR [CDK11B_Y449_YF]", "SH2 binding enrichment": 0.467}
{"sequenceData": "HKDNNYVSMWF [PAPOLG_Y432]", "SH2 binding enrichment": 0.817}
{"sequenceData": "PDSVDYRKKGF [CTSK_Y121_YF]", "SH2 binding enrichment": 0.638}
{"sequenceData": "IGEGTYGVVFK [CDK2_Y15_YF]", "SH2 binding enrichment": 0.655}
{"sequenceData": "CVGGFYGGCNE [CTSC_Y352_Y347C]", "SH2 binding enrichment": 0.748}
{"sequenceData": "GGQDVYGDFGG [Probound]", "SH2 binding enrichment": 0.79}
{"sequenceData": "PPGRSYSPCDY [TNS1_Y793_Y796C]", "SH2 binding enrichment": 0.772}

1: DEDFLCREELA [POR_Y575_Y575C_YF]
2: LLKKMYLMLDN [STAT1_Y203]
3: YFVVEYRDQKP [MUC17_Y4332]
4: KSNSDYVDVLP [SH2D1B_Y127_N122K]
Problem: Highest SH2 binding enrichment first, then in falling order down to the smallest. Your task in answering is to list the labels in the requested order.
Solution: 3, 2, 1, 4
(3: 5.95, 2: 1.24, 1: 0.734, 4: 0.479)

a: GIVEDYRPPVY [ACVRL1_Y421_F425V]
b: DHKRQYELLKL [KIF4B_Y684_R680H]
Problem: Between the entries labelled a and b , which has a larger SH2 binding enrichment value on record? Answer with the label corresponding to your selection.
Solution: b
(b: 0.76, a: 0.524)

a: QDLFLYQTHSE [PKHD1_Y255]
b: KRLKDYLMVLQ [USP25_Y425_T427M]
Problem: Between the entries labelled a and b , which has a larger SH2 binding enrichment value on record? Answer with the label corresponding to your selection.
Solution: b
(b: 1.36, a: 0.696)

a: EDGFAYVPLKD [PRIM2_Y208]
b: TLNHQYDYTFH [CSNK1A1_Y292_D297H]
c: RFVFFYSFLLK [PTEN_Y178_YF]
Problem: Highest SH2 binding enrichment first, then in falling order down to the smallest. Your task in answering is to list the labels in the requested order.
Solution: c, b, a
(c: 1.43, b: 0.874, a: 0.563)

* * *

# Tested on: c-Abl (mouse)
# assayInfo: phosphorylation enrichment, bacterial display (enrichment ratio); higher = better substrate or ligand; peptides without Tyr show the background
Measured phosphorylation enrichment values are reported for all entries that follow.
Enter a number only.

Problem: Record lookup: for c-Abl (mouse), what phosphorylation enrichment belongs to HRGCLYLAIEY [TEK_Y899_Y897C] ?
Solution: 1.49

Problem: Record lookup: for c-Abl (mouse), what phosphorylation enrichment belongs to TSQSQYSSFRE [CCDC170_Y323_F324S] ?
Solution: 0.607

Problem: Record lookup: for c-Abl (mouse), what phosphorylation enrichment belongs to LGSWTYPKTVS [ROS1_Y144_T145P] ?
Solution: 0.732

Problem: Record lookup: for c-Abl (mouse), what phosphorylation enrichment belongs to KELAPYDENCF [RPS19_Y48_W52C] ?
Solution: 0.997

Problem: Record lookup: for c-Abl (mouse), what phosphorylation enrichment belongs to DENWFYTRAAS [RPS19_Y54] ?
Solution: 1.34

Problem: Record lookup: for c-Abl (mouse), what phosphorylation enrichment belongs to FVTSMYNEILI [TRPV1_Y310_M315I] ?
Solution: 0.686

Problem: Record lookup: for c-Abl (mouse), what phosphorylation enrichment belongs to PMFHSYVSLPF [PLXNA2_Y293_K289M] ?
Solution: 0.712

* * *

# experimentalSystem: FGFR3 (UniProt P22607)
# Sequence (P22607 whole entry, looked up): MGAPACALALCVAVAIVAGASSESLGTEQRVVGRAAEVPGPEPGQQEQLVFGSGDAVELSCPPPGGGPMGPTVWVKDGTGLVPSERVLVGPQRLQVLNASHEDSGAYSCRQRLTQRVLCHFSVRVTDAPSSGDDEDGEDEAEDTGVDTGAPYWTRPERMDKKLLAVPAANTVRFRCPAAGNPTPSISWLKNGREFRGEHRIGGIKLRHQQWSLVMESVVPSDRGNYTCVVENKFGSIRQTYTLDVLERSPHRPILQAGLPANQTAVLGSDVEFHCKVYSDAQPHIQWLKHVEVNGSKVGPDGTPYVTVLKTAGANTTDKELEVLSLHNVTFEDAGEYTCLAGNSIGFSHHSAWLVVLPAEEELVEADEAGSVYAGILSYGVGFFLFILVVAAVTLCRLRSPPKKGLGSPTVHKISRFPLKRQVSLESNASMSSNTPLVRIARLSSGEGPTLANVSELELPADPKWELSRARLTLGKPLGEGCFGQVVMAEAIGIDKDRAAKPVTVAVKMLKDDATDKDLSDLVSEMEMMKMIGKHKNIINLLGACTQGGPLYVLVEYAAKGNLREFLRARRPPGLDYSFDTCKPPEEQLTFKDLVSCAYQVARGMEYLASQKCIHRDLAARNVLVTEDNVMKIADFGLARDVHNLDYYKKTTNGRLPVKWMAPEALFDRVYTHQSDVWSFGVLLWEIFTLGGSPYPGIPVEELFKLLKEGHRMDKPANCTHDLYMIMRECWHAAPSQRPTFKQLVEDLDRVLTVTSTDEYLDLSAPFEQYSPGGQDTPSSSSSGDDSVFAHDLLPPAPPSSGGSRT
# assayInfo: phosphorylation enrichment, bacterial display (enrichment ratio); higher = better substrate or ligand; peptides without Tyr show the background
Measured phosphorylation enrichment values are reported for all entries that follow.
Enter a number only.

Worked set:
{"sequenceData": "CEAMEYLESKQ [BTK_Y511]", "measuredQuantity": "phosphorylation enrichment", "readoutNumber": 1.01}
{"sequenceData": "GGGFGYQKTKK [DDX18_Y643]", "measuredQuantity": "phosphorylation enrichment", "readoutNumber": 0.422}
{"sequenceData": "ADKSAYLMGLN [MYH7_Y386]", "measuredQuantity": "phosphorylation enrichment", "readoutNumber": 0.579}
{"sequenceData": "RSFPSYYTSHV [NEFL_Y442]", "measuredQuantity": "phosphorylation enrichment", "readoutNumber": 1.28}
{"sequenceData": "IYETDYYQKGG [INSR_Y1189_R1191Q]", "measuredQuantity": "phosphorylation enrichment", "readoutNumber": 1.46}
{"sequenceData": "NTYEKYWLFYQ [GATM_Y103_P105L]", "measuredQuantity": "phosphorylation enrichment", "readoutNumber": 1.65}
{"sequenceData": "SLTRLCVGENA [NLRP3_Y861_Y861C]", "measuredQuantity": "phosphorylation enrichment", "readoutNumber": 0.685}
{"sequenceData": "NLMPAYFKCIQ [CYP21A2_Y190_YF]", "measuredQuantity": "phosphorylation enrichment", "readoutNumber": 1.01}

Problem: Record lookup: for FGFR3 (UniProt P22607), what phosphorylation enrichment belongs to LLSVAYKNVVR [YWHAZ_Y48_G53R] ?
Solution: 0.853

Problem: Record lookup: for FGFR3 (UniProt P22607), what phosphorylation enrichment belongs to FDAHIYEGRVI [PRKCD_Y64] ?
Solution: 0.574

Problem: Record lookup: for FGFR3 (UniProt P22607), what phosphorylation enrichment belongs to CDTKLYTSVPN [DNTTIP2_Y427_A430V] ?
Solution: 0.797

Problem: Record lookup: for FGFR3 (UniProt P22607), what phosphorylation enrichment belongs to IIRYNYLLDVL [FGFR4_Y237_S232I] ?
Solution: 0.723

Problem: Record lookup: for FGFR3 (UniProt P22607), what phosphorylation enrichment belongs to SVTCTYSPALY [TP53_Y126_N131Y] ?
Solution: 0.929

Problem: Record lookup: for FGFR3 (UniProt P22607), what phosphorylation enrichment belongs to FLGRNYLETLM [DUS3L_Y610_D609N_YF] ?
Solution: 0.567

Problem: Record lookup: for FGFR3 (UniProt P22607), what phosphorylation enrichment belongs to PTTKTYFPHFY [HBA1_Y43_D48Y] ?
Solution: 1.14

* * *

Measured phosphorylation enrichment values are reported for all entries that follow.
# experimentalSystem: Jak2 (UniProt O60674)
# Sequence (O60674 whole entry, looked up): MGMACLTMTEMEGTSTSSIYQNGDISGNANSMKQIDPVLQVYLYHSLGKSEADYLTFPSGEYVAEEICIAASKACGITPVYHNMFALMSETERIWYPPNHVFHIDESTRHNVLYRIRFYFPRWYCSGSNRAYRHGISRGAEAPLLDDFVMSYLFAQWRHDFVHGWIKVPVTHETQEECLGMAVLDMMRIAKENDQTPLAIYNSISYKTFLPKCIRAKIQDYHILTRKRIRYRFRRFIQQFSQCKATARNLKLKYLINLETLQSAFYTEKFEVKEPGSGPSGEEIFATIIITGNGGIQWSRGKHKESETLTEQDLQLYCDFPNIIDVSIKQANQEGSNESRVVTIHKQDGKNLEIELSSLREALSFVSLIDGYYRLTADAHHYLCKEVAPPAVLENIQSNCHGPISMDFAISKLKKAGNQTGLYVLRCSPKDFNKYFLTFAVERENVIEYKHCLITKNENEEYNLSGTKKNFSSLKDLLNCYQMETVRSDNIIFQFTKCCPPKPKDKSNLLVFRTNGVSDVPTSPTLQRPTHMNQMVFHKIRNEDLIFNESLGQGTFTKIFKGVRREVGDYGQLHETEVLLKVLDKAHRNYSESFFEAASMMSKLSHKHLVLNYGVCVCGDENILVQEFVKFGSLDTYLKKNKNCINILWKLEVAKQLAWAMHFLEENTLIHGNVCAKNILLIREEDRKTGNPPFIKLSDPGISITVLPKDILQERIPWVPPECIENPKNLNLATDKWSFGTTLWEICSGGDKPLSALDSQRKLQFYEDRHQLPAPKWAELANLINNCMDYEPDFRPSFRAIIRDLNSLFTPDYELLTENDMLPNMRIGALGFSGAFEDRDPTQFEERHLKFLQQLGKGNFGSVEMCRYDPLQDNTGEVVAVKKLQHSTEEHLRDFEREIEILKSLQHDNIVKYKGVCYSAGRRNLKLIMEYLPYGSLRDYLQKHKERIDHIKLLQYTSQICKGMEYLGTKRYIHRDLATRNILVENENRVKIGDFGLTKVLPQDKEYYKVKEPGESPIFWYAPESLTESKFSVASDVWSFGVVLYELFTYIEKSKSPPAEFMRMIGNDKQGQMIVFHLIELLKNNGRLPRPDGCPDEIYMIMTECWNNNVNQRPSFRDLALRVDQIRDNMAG
# assayInfo: phosphorylation enrichment, bacterial display (enrichment ratio); higher = better substrate or ligand; peptides without Tyr show the background
Enter a number only.

Worked set:
{"sequenceData": "SAASSYSFSDL [EMD_Y59]", "readoutNumber": 0.874}
{"sequenceData": "GNHISYFQSDG [CACNA1C_Y1757_V1755I_YF]", "readoutNumber": 0.566}
{"sequenceData": "TLPAFYMGNFS [GLB1_Y552]", "readoutNumber": 1.03}

Problem: Can you share its phosphorylation enrichment? I mean this sequence: QKMLDYLKEKK [RYR2_Y3780]
Solution: 0.579

Problem: Can you share its phosphorylation enrichment? I mean this sequence: GNLLIYTELGK [HGD_Y166_F169L]
Solution: 1.21

Problem: Can you share its phosphorylation enrichment? I mean this sequence: KDQGGYAMHQD [MAPT_Y29_T30A]
Solution: 0.528

Problem: Can you share its phosphorylation enrichment? I mean this sequence: HLLRIYYDITD [MMP27_Y307_W304L]
Solution: 1.91

Problem: Can you share its phosphorylation enrichment? I mean this sequence: HNVPICEGFAL [ACTC1_Y168_Y168C_YF]
Solution: 1.15

Problem: Can you share its phosphorylation enrichment? I mean this sequence: AAVLNYKAGRD [GRIN2A_Y737]
Solution: 0.469

Problem: Can you share its phosphorylation enrichment? I mean this sequence: KSRQIYDAFIM [GRK3_Y109_R104K_YF]
Solution: 0.799

Problem: Can you share its phosphorylation enrichment? I mean this sequence: SIIKDYFHRGT [GATM_Y203_A208T]
Solution: 0.551

Problem: Can you share its phosphorylation enrichment? I mean this sequence: RPSRWYQFRVA [ANOS1_Y259]
Solution: 0.894

Problem: Can you share its phosphorylation enrichment? I mean this sequence: CEAMEYLESKQ [BTK_Y511]
Solution: 1.89

Problem: Can you share its phosphorylation enrichment? I mean this sequence: PSSNLYFRWLT [CNGA3_Y168_YF]
Solution: 3.54

Problem: Can you share its phosphorylation enrichment? I mean this sequence: CTTIHYNYMCK [TP53_Y234_N239K]
Solution: 0.674

Problem: Can you share its phosphorylation enrichment? I mean this sequence: SHMVDYQPYRK [TEX37_Y25]
Solution: 0.719

Problem: Can you share its phosphorylation enrichment? I mean this sequence: RRNVYYYSYLL [PTEN_Y177_Y174N]
Solution: 2.42

Problem: Can you share its phosphorylation enrichment? I mean this sequence: VAMDDYLKNVM [LRRK2_Y707]
Solution: 0.831

Problem: Can you share its phosphorylation enrichment? I mean this sequence: NTGLDYIKFTW [HRH1_Y386]
Solution: 1.92

Problem: Can you share its phosphorylation enrichment? I mean this sequence: RSSGSYGGGGQ [HNRNPA1_Y341_P340S]
Solution: 0.354

Problem: Can you share its phosphorylation enrichment? I mean this sequence: EEETDYTPVWC [UROD_Y30_G25E]
Solution: 1.16

Problem: Can you share its phosphorylation enrichment? I mean this sequence: HRGHLYLAIEF [TEK_Y899_Y897H_YF]
Solution: 6.33

Problem: Can you share its phosphorylation enrichment? I mean this sequence: KTGDYYDLYGG [PTPN11_Y63_N58K]
Solution: 2.26

Problem: Can you share its phosphorylation enrichment? I mean this sequence: IATTIYSGDKI [UGGT2_Y823_A821T]
Solution: 0.701

Problem: Can you share its phosphorylation enrichment? I mean this sequence: WCKPLYFSCAV [MMS22L_Y28_P27L]
Solution: 1.57
